Voltage-gated inwardly rectifying potassium channel KCNH2 (Homo sapiens) measurements of IC50, listed per entry.
Sequence (Q12809 whole entry): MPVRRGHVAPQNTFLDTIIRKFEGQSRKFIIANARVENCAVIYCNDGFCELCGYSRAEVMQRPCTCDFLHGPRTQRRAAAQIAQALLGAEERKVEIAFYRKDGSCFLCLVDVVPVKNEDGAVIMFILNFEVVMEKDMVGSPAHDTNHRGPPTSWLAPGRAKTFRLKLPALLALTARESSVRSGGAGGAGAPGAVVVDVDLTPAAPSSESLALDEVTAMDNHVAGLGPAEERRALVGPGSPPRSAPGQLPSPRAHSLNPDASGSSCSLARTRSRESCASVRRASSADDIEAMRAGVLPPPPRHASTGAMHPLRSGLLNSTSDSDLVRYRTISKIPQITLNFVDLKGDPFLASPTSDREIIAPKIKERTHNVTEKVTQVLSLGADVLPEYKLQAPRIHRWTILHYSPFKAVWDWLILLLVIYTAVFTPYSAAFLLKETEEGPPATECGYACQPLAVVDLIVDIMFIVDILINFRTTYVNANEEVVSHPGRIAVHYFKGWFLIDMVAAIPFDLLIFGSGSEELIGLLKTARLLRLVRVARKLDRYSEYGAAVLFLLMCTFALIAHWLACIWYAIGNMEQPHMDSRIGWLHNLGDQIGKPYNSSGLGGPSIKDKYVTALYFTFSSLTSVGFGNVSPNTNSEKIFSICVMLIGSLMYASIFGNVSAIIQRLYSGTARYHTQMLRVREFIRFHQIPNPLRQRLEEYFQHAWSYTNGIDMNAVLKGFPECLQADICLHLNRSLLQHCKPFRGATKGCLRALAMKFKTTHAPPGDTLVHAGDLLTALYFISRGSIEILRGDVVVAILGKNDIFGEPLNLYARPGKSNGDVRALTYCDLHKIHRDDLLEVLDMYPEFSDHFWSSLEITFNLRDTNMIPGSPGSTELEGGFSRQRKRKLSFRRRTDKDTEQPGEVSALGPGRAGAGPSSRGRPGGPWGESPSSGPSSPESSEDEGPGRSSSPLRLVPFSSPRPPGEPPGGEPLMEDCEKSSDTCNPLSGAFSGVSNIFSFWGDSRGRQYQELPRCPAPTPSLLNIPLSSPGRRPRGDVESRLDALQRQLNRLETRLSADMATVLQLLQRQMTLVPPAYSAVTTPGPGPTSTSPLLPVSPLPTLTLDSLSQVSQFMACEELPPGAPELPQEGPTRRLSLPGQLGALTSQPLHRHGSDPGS

molecular-string | unit-text | IC50
Cc1nc(Nc2n[nH]c3c2CN(C(=O)N[C@H](CN(C)C)c2ccccc2)C3(C)C)c2sccc2n1 | µM | 41.1
CCNC(=O)c1n[nH]c2cc(-c3ccc(-n4cccc(C)c4=O)cc3Cl)ccc12 | µM | 90.4
Cc1cccn(-c2ccc(-c3ccc4c(C(=O)NCc5ccncc5)n[nH]c4c3)c(Cl)c2)c1=O | µM | 16
CN[C@@H]1C[C@H]2O[C@@](C)([C@@H]1OC)n1c3ccccc3c3c4c(c5c6ccccc6n2c5c31)C(=O)NC4 | µM | 90.4

====

- target: Serine/threonine-protein kinase PAK 1 (Homo sapiens, UniProt Q13153)
- Sequence (Q13153 whole entry): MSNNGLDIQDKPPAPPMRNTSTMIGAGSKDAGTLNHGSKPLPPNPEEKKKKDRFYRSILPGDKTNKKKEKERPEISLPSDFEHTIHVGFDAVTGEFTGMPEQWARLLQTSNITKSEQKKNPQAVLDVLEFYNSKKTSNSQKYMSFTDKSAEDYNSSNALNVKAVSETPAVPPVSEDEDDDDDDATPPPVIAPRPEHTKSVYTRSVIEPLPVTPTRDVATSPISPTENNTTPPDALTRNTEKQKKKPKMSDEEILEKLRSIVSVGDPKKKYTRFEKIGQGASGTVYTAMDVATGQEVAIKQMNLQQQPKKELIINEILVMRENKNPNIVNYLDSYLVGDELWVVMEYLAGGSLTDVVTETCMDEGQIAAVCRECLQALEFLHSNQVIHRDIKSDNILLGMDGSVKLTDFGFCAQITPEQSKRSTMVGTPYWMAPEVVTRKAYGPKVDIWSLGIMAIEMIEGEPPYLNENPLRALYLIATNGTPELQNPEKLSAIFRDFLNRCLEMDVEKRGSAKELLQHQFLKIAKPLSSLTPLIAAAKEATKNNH
- assay-explanation: Inhibition of full length recombinant human N-terminal GST/His6-tagged PAK1 expressed in sf9 insect cells using tetra LRRWSLG as substrate preincubated for 20 min followed by [gamma33P]ATP addition and measured after 120 mins by Hotspot assay

molecular-string | IC50
CNC(=O)c1n[nH]c2cc(-c3ccc(-c4cncc(C)n4)cc3Cl)ccc12 | 159 nM
Cc1cccn(-c2ccc(-c3ccc4c(C(=O)N5CCOCC5)n[nH]c4c3)c(Cl)c2)c1=O | > 10000 nM
Cc1cccn(-c2ccc(-c3ccc4c(C(=O)NCC5CCOCC5)n[nH]c4c3)c(Cl)c2)c1=O | 42 nM
COCCNC(=O)c1n[nH]c2cc(-c3ccc(-n4cccc(C)c4=O)cc3Cl)ccc12 | 71 nM
Cc1cccn(-c2ccc(-c3ccc4c(C(=O)NCC5CC5)n[nH]c4c3)c(Cl)c2)c1=O | 34 nM
CNC(=O)c1n[nH]c2cc(-c3ccc(-n4cccc(C)c4=O)cc3Cl)ccc12 | 16 nM
Cc1cccn(-c2ccc(-c3ccc4c(C(=O)NCc5ccccc5)n[nH]c4c3)c(Cl)c2)c1=O | 92 nM
Cc1cccn(-c2ccc(-c3ccc4c(C(=O)NC5CCOCC5)n[nH]c4c3)c(Cl)c2)c1=O | 744 nM
Cc1cccn(-c2ccc(-c3ccc4c(C(=O)NCCO)n[nH]c4c3)c(Cl)c2)c1=O | 66 nM
Cc1cccn(-c2ccc(-c3ccc4c(C(=O)NCCc5ccncc5)n[nH]c4c3)c(Cl)c2)c1=O | 21 nM
CNC(=O)c1n[nH]c2cc(-c3ccccc3Cl)ccc12 | 5000 nM
Cc1cccn(-c2ccc(-c3ccc4c(C(=O)NC5CCN(C)CC5)n[nH]c4c3)c(Cl)c2)c1=O | 143 nM
Cc1cccc(-c2ccc(-c3ccc4c(C(=O)NCC5CC5)n[nH]c4c3)c(Cl)c2)n1 | 229 nM
Cc1cccn(-c2ccc(-c3ccc4c(C(=O)Nc5ccncc5)n[nH]c4c3)c(Cl)c2)c1=O | 16 nM
CNC(=O)c1n[nH]c2cc(-c3ccc(-c4cccc(C)n4)cc3Cl)ccc12 | 52 nM
Cc1cncc(-c2ccc(-c3ccc4c(C(=O)NCC5CC5)n[nH]c4c3)c(Cl)c2)n1 | 777 nM
Cc1cccn(-c2ccc(-c3ccc4c(C(=O)N5CCCC5)n[nH]c4c3)c(Cl)c2)c1=O | > 10000 nM
CCNC(=O)c1n[nH]c2cc(-c3ccc(-n4cccc(C)c4=O)cc3Cl)ccc12 | 45 nM
Cc1cccn(-c2ccc(-c3ccc4c(C(=O)NCC5CCN(C)CC5)n[nH]c4c3)c(Cl)c2)c1=O | 22 nM
O=C(NCC1CC1)c1n[nH]c2cc(-c3ccc(-n4ccccc4=O)cc3Cl)ccc12 | 590 nM
CNC(=O)c1n[nH]c2cc(-c3ccc(-n4ccccc4=O)cc3Cl)ccc12 | 330 nM
